Recorded half-life for the following molecules
# test name: Serum concentration of androgen analogs after intravenous injection, by LC/MS
# Format: in vivo
# condition parameters: mouse, 50 ug, 50 μg intravenous, C57/B6 mice

Q: Output measured half-life for this item: C[C@]12CCC(=O)C[C@@H]1C[C@@H](/C=C/I)[C@@H]1[C@@H]2CC[C@]2(C)[C@@H](O)CC[C@@H]12 [IVDHT]
Ans: ~1.5 h

Q: Specify measured half-life for C[C@]12CCC(=O)C[C@@H]1C[C@@H](/C=C/I)[C@@H]1[C@@H]2CC[C@@]2(C)[C@H]1CC[C@]2(C)O [IVMDHT] .
Ans: ~1.5 h

Q: Determine its reported half-life: C[C@]12CC[C@@H]3C4CCC(=O)C[C@@H]4C[C@@H](/C=C/I)[C@H]3[C@@H]1CC[C@@H]2O (stereo partly drawn) [IVNDHT]
Ans: ~1.5 h
